Origin of values: PubChem BioAssay AID1259333

System: cytotoxicity, CellTiter-Glo ATP luminescence
Assay Details: loss of cell viability by ATP content – CellTiter-Glo, cytotoxicity control, dose response (AID 1259333)
The source made the active and inactive calls. The rule behind the calls is not given here; tested in parental BL2 cells.
Outcomes: TRUE = active, FALSE = inactive

compound=O=C(COC(=O)c1ccccc1C(=O)c1ccc(Cl)c([N+](=O)[O-])c1)NC1CC1 group=TRUE
compound=NCCOc1ccc(C23CC4CC(CC(C4)C2)C3)cc1 group=TRUE
compound=CC(C)[C@H](CO)Nc1nc(Nc2cccc(Cl)c2)c2ncn(C(C)C)c2n1 group=TRUE
compound=COc1ccccc1C(=O)Nc1ccc2c(c1)C(=O)N(C)[C@H]1CC[C@H](CC(=O)Nc3cccc(C(C)C)c3)O[C@@H]1CO2 group=FALSE
compound=C[C@@H]1CN([C@@H](C)CO)C(=O)c2ccccc2-c2ccccc2CO[C@@H]1CN(C)Cc1ccc(Oc2ccccc2)cc1 group=TRUE
compound="CC(=O)O[C@H]1C[C@H](O[C@H]2[C@@H](O)C[C@H](O[C@H]3[C@@H](O)C[C@H](O[C@H]4CC[C@@]5(C)C(CCC6C5C[C@@H](O)[C@]5(C)[C@@H](C7=CC(=O)OC7)CC[C@]65O)C4)O[C@@H]3C)O[C@@H]2C)O[C@H](C)[C@H]1O[C@@H]1O[C@H](CO)[C@@H](O)[C@H](O)[C@H]1O (some centres not stated)" group=TRUE
compound="OC(CCN1CCCCC1)c1ccc(-c2ccccc2)cc1 (configuration not stated)" group=FALSE
compound="CC1OC(OC2CC(O)C3(CO)C4C(O)CC5(C)C(C6=CC(=O)OC6)CCC5(O)C4CCC3(O)C2)C(O)C(O)C1O (configuration not stated)" group=TRUE
compound=C[C@H](CO)N1C[C@H](C)[C@H](CN(C)C(=O)Nc2cccc(Cl)c2Cl)OCc2ccccc2-c2c(n(C)c3ccccc23)C1=O group=TRUE
compound=O=C1c2c(O)ccc(O)c2C(=O)c2c(NCCNCCO)ccc(NCCNCCO)c21 group=TRUE
compound=C[C@H](CO)N1C[C@H](C)[C@@H](CN(C)Cc2ccc(Oc3ccccc3)cc2)OCc2ccccc2-c2ccccc2C1=O group=FALSE
compound=C[C@@H]1CCCCO[C@H](CN(C)CC2CCCCC2)[C@H](C)CN([C@@H](C)CO)C(=O)c2cc(NC(=O)Nc3ccc(C(F)(F)F)cc3)ccc2O1 group=TRUE
compound=COC(=O)c1nn(-c2ccc(-c3ccccc3)cc2)cc1O group=FALSE
compound=Cc1noc(C)c1S(=O)(=O)N(C)C[C@H]1OCc2ccccc2-c2c(n(C)c3ccccc23)C(=O)N([C@@H](C)CO)C[C@H]1C group=TRUE
compound="CC(NCC(O)COCCC12CC3CC(CC(C3)C1)C2)c1ccccc1 (configuration not stated)" group=TRUE
compound=N#C[C@@H]1[C@H](c2ccc(C#CC3CCCCC3)cc2)[C@@H](CO)N1S(=O)(=O)c1ccccc1 group=TRUE
compound="C=C1C(=O)C23C(O)C1CCC2C12CCCC(C)(COC(C)=O)C1C(O)C3(O)OC2 (configuration not stated)" group=TRUE

====

Test system: cytotoxicity, CellTiter-Glo ATP luminescence
Assay Details: loss of cell viability by ATP content – CellTiter-Glo, cytotoxicity control, dose response (AID 1259333)
Metric Name: AC50

compound=COc1cccc(-c2cc(=O)c3cc(OC)ccc3o2)c1 target_under_test="cytotoxicity, CellTiter-Glo ATP luminescence" metric_name=AC50 measured_result="10.3 µM"
compound=O=C(C1CCC1)N1CCc2cc(S(=O)(=O)N3CCCCC3)ccc21 target_under_test="cytotoxicity, CellTiter-Glo ATP luminescence" metric_name=AC50 measured_result="2.65 µM"
compound=COc1ccc(NC(=O)O/N=C/c2c(C)nn(C(C)(C)C)c2C)cc1 target_under_test="cytotoxicity, CellTiter-Glo ATP luminescence" metric_name=AC50 measured_result="7.85 µM"
compound="COc1cc(C(=O)CCN2CCC(c3ccccc3)C2)cc(OC)c1OC (configuration not stated)" target_under_test="cytotoxicity, CellTiter-Glo ATP luminescence" metric_name=AC50 measured_result="7.27 µM"
compound=O=C(Nc1cccc(N2C(=O)C=CC2=O)c1)c1cccs1 target_under_test="cytotoxicity, CellTiter-Glo ATP luminescence" metric_name=AC50 measured_result="2.26 µM"
compound=C[C@@H]1CCCCO[C@@H](CN(C)Cc2ccc(Cl)c(Cl)c2)[C@H](C)CN([C@H](C)CO)C(=O)c2cc(NS(=O)(=O)c3cccs3)ccc2O1 target_under_test="cytotoxicity, CellTiter-Glo ATP luminescence" metric_name=AC50 measured_result="8.68 µM"
compound="CSc1ccc2c(c1)N(CCC1CCCCN1C)c1ccccc1S2 (configuration not stated)" target_under_test="cytotoxicity, CellTiter-Glo ATP luminescence" metric_name=AC50 measured_result="8.67 µM"

====

Test system: cytotoxicity, CellTiter-Glo ATP luminescence
Assay Details: loss of cell viability by ATP content – CellTiter-Glo, cytotoxicity control, dose response (AID 1259333)
Active and inactive are the calls of the source. The rule behind the calls is not given here; tested in parental BL2 cells.
Outcome codes: active, inactive

molecule=C[C@@H]1CCCCO[C@@H](CN(C)S(=O)(=O)c2ccc(Cl)cc2)[C@H](C)CN([C@H](C)CO)C(=O)c2cc(NC(=O)Nc3ccc(C(F)(F)F)cc3)ccc2O1 group=active
molecule=CCN1/C(=C/c2sc(-c3ccccc3C)c[n+]2C)Sc2ccccc21 group=active
molecule=COC(=O)C[C@](O)(CCCC(C)(C)O)C(=O)O[C@@H]1C(OC)=C[C@]23CCCN2CCc2cc4c(cc2[C@H]13)OCO4 group=inactive
molecule="COc1cccc2c1C(=O)c1c(O)c3c(c(O)c1C2=O)C[C@@](O)(C(C)=O)C[C@@H]3OC1CC(N)C(O)C(C)O1 (stereo not given in full)" group=active
molecule=Cc1noc(C)c1S(=O)(=O)Nc1ccc2c(c1)C(=O)N([C@H](C)CO)C[C@H](C)[C@@H](CN(C)C(=O)Nc1cccc3ccccc13)OCCCC[C@H](C)O2 group=inactive
